Consider the following compounds and their measured IC50 readings.
- Experimental target: TRPC5 (Homo sapiens)
- Construct: expressed in transfected cells; host or cells: HEK293 TREx cells, inducible TRPC5 expression, induced 20-48 hours
- Sequence (Q9UL62 1-973): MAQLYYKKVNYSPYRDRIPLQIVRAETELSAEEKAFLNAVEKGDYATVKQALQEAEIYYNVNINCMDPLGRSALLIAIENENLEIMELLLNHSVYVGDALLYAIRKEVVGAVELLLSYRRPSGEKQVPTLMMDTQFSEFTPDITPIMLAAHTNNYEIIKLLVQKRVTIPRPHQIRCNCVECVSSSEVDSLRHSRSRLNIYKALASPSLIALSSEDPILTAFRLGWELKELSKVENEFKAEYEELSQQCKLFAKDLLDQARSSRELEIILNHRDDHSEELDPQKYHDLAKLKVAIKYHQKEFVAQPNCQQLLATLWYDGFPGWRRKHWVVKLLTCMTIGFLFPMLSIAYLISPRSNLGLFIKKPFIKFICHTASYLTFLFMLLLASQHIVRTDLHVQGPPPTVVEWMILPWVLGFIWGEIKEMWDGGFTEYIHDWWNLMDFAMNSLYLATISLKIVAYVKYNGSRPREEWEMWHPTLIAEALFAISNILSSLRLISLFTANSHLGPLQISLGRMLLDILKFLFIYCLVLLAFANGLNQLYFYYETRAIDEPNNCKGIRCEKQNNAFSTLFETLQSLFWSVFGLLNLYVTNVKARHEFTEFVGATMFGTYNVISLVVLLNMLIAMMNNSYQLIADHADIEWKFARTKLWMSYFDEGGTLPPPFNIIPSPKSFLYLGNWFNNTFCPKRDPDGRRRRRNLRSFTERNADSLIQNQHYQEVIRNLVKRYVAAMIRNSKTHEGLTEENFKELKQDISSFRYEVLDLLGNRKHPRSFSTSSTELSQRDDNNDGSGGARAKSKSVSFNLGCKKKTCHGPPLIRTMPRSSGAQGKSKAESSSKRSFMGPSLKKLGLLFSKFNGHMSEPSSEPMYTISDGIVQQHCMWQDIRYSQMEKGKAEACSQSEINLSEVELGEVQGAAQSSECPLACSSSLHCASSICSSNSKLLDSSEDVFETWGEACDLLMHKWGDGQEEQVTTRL
- Experimental details: Assay A: Determination of TRPC5-Inhibition (whole-cell patch clamp)
- Format: cell-based
- Condition label: compounds of the present invention, TRPC5-expressing HEK293 TREx cells, LaCl3-activated current
- Description: Assay A: Determination of TRPC5-Inhibition Patch clamp experiments permit the detection of currents through the TRPC5 channel in a cell line. […] TRPC5 cells were induced 20-48 hours, removed from growth plates, and replated at low density (to attain good single-cell physical separation) on glass coverslips for measurement. […] Currents elicited were quantified at −80 mV and +80 mV. […]
Readout label: IC50 (nM)

INSERT INTO measurements (compound, unit_info, data_value) VALUES
  ('CCn1c(=O)n(CCCO)c(=O)c2c1nc(-c1ccc(OC3CCC3C)nc1)n2Cc1ccccc1 (stereo not drawn) [Example 63]', 'nM', 3.15),
  ('Cc1nc(OC2CCC2)ccc1-c1nc2c(c(=O)n(CCCO)c(=O)n2C(C)C)n1Cc1ccc(F)cc1 [Example 33]', 'nM', 0.477),
  ('CCn1c(=O)n(CCCO)c(=O)c2c1nc(-c1ccc(OC3CC(C)C3)nc1C)n2Cc1ccccc1 (stereo not drawn) [Example 34]', 'nM', 0.485),
  ('CCn1c(=O)n(CCCO)c(=O)c2c1nc(-c1ccc(OC3CC4CCC3C4)nc1C)n2Cc1ccc(F)cc1 (stereo not drawn) [Example 7]', 'nM', 0.104),
  ('CCn1c(=O)n(CCCO)c(=O)c2c1nc(-c1ccc(OC3CCC3)nc1)n2Cc1ccc(C2CC2)cc1 [Example 49]', 'nM', 1.01),
  ('CCn1c(=O)n(CCCO)c(=O)c2c1nc(-c1ccc(OC3CCC3)nc1)n2Cc1ccc(Br)cc1 [Example 38]', 'nM', 0.613),
  ('CCn1c(=O)n(CCCO)c(=O)c2c1nc(-c1ccc(OC3CCC3)nc1)n2Cc1ccc(SC(F)(F)F)cc1 [Example 46]', 'nM', 0.812),
  ('CCn1c(=O)n(CCCO)c(=O)c2c1nc(-c1ccc(OC3CCC3C)nc1C(F)(F)F)n2Cc1ccc(F)cc1 (stereo not drawn) [Example 15]', 'nM', 0.184),
  ('CCn1c(=O)n(CCCO)c(=O)c2c1nc(-c1ccc(OC3CCC3C)nc1C)n2Cc1ccc(Br)cc1 (stereo not drawn) [Example 14]', 'nM', 0.178),
  ('CCC(C)n1c(=O)n(CCCO)c(=O)c2c1nc(-c1ccc(OC3CCCC3)nc1C)n2Cc1ccccc1 (stereo not drawn) [Example 37]', 'nM', 0.603),
  ('Cc1nc(OC2CC(F)(F)C2)ccc1-c1nc2c(c(=O)n(CCCO)c(=O)n2C(C)C)n1Cc1ccc(F)cc1 [Example 25]', 'nM', 0.312),
  ('C#Cc1ccc(Cn2c(-c3ccc(OC4CCC4)nc3)nc3c2c(=O)n(CCCO)c(=O)n3CC)cc1 [Example 57]', 'nM', 2.66),
  ('CCn1c(=O)n(CCCO)c(=O)c2c1nc(-c1ccc(OC3CCC3C)nc1C(F)(F)F)n2Cc1ccccc1 (stereo not drawn) [Example 12]', 'nM', 0.171),
  ('CCn1c(=O)n(CCCO)c(=O)c2c1nc(-c1ccc(OC3CCC3)nc1C)n2Cc1ccccc1 [Example 52]', 'nM', 1.58),
  ('CCn1c(=O)n(CCCO)c(=O)c2c1nc(-c1ccc(OC3CCC3)nc1)n2Cc1cc(F)cc(F)c1 [Example 58]', 'nM', 3.67),
  ('CCn1c(=O)n(CCCO)c(=O)c2c1nc(-c1ccc(OC3CCC3C)nc1)n2Cc1ccc(F)cc1 (stereo not drawn) [Example 51]', 'nM', 1.36),
  ('CCn1c(=O)n(CCCO)c(=O)c2c1nc(-c1ccc(OC3CCCC3)nc1C)n2Cc1ccccc1 [Example 61]', 'nM', 2.43),
  ('Cc1nc(OC2CCCCC2)ccc1-c1nc2c(c(=O)n(CCCO)c(=O)n2C(C)C)n1Cc1ccccc1 [Example 2]', 'nM', 0.095),
  ('CCn1c(=O)n(CCCO)c(=O)c2c1nc(-c1ccc(OC3CCC3C)nc1C)n2Cc1ccc(Cl)cc1 (stereo not drawn) [Example 3]', 'nM', 0.099),
  ('CCn1c(=O)n(CCCO)c(=O)c2c1nc(-c1ccc(OC3CCC(C(F)(F)F)CC3)nc1C)n2Cc1ccc(F)cc1 (stereo not drawn) [Example 35]', 'nM', 0.531),
  ('CCn1c(=O)n(CCCO)c(=O)c2c1nc(-c1ccc(OC3CC=CC3)nc1C)n2Cc1ccc(F)cc1 [Example 45]', 'nM', 0.75),
  ('Cc1nc(OC2CC(F)(F)C2)ccc1-c1nc2c(c(=O)n(CCCO)c(=O)n2C(C)C)n1Cc1ccccc1 [Example 43]', 'nM', 0.732),
  ('CCn1c(=O)n(CCCO)c(=O)c2c1nc(-c1ccc(OC3CCC3C)nc1C)n2Cc1ccccc1 (stereo not drawn) [Example 60]', 'nM', 2.09),
  ('CCn1c(=O)n(CCCO)c(=O)c2c1nc(-c1ccc(OC3CCCC3)nc1C)n2Cc1ccc(F)cc1 [Example 44]', 'nM', 0.743),
  ('CCn1c(=O)n(CCCO)c(=O)c2c1nc(-c1ccc(OC3CCC3)nc1F)n2Cc1ccc(F)cc1 [Example 62]', 'nM', 3.37),
  ('CCn1c(=O)n(CCCO)c(=O)c2c1nc(-c1ccc(OC3CCC3)nc1C)n2Cc1ccc(Cl)cc1 [Example 36]', 'nM', 0.551),
  ('CCn1c(=O)n(CCCO)c(=O)c2c1nc(-c1ccc(OC3CCC3)nc1)n2Cc1ccc(F)cc1 [Example 64]', 'nM', 2.71),
  ('Cc1nc(OC2CCC2)ccc1-c1nc2c(c(=O)n(CCCO)c(=O)n2C2CCC2)n1Cc1ccccc1 [Example 16]', 'nM', 0.19),
  ('CCn1c(=O)n(CCCO)c(=O)c2c1nc(-c1ccc(OC3CCC3(C)C)nc1C)n2Cc1ccccc1 (stereo not drawn) [Example 31]', 'nM', 0.431),
  ('CCn1c(=O)n(CCCO)c(=O)c2c1nc(-c1cc(F)c(OC3CCC3)nc1C)n2Cc1ccccc1 [Example 39]', 'nM', 0.628);
